Origin of values: the MegaScale stability set (Tsuboyama et al. 2023)

B1: 1ZHC (parent)
chain: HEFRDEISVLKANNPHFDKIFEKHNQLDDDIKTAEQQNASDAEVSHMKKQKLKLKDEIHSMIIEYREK

# Variants of: B1
# test_description: folding stability dG (cDNA display proteolysis); higher = more stable
# condition_context: PBS, room temperature
Listed next: entries and their corresponding folding stability dG.
Write it as a number; the unit kcal/mol goes unstated.

Example entries begin here.
> print(dat)
    var  value.measured
1   F3W            1.15
2   H1S            1.03
3  S45V           0.431
4  K49E           0.919
5   S8K            1.21

Input line: What value of measured folding stability dG is listed for A39R ?
Output line: 1.33

Input line: Similarly, Q36C ?
Output line: 0.694

Input line: Similarly, D18L ?
Output line: 2.42
